Each record here notes measured Kd.
Study System: ALK2 (Homo sapiens)
Sequence (Q04771 21-509): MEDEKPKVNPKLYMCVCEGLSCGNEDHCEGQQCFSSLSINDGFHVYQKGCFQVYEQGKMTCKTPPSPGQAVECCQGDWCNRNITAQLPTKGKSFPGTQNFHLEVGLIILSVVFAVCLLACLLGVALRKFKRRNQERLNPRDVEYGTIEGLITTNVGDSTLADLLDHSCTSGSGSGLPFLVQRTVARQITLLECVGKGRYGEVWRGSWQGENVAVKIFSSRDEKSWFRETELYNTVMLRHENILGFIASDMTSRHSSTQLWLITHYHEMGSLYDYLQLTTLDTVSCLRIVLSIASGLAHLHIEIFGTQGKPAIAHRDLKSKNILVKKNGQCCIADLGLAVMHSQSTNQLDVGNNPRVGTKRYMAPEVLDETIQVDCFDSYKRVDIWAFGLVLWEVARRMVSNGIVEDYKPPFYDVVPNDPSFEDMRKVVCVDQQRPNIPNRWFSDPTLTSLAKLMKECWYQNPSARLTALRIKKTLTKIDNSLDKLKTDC
Assay Notes: radiometric protein kinase assay, affinity (Kd)
Type: binding
Measured Metric: Kd (nM)

INSERT INTO measurements (compound_structure, measured_metric, unit_label, obs_value) VALUES
  ('CN1CCC(=O)NCCNc2ccn3ncc(c3n2)-c2cccc(c2)C1', 'Kd', 'nM', 10),
  ('CN1CCc2cccc(c2)Nc2nccc(n2)N2CCCc3cc(ccc32)C1', 'Kd', 'nM', 17);

---

Study System: ALK3 (Homo sapiens, UniProt P36894)
Sequence (P36894 24-532): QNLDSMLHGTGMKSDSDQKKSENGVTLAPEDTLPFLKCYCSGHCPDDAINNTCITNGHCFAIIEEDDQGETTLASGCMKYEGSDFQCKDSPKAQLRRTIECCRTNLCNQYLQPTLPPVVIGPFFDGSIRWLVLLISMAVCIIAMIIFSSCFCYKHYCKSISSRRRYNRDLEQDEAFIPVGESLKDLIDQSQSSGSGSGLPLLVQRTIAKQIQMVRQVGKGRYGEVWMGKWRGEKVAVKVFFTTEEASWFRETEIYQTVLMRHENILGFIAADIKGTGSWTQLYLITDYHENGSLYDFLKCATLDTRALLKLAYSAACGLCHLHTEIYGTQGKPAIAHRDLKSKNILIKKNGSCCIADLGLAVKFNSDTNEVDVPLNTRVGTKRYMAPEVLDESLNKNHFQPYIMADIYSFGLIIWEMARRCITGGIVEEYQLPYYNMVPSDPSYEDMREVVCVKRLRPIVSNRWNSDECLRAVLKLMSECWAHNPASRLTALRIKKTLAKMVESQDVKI
Assay Notes: radiometric protein kinase assay, affinity (Kd)
Assay type: binding
Measured Metric: Kd (nM)

INSERT INTO results (compound_structure, study_system, measured_metric, unit_label, obs_value) VALUES
  ('CN1CCC(=O)NCCNc2ccn3ncc(c3n2)-c2cccc(c2)C1', 'ALK3 (Homo sapiens, UniProt P36894)', 'Kd', 'nM', 1010),
  ('CN1CCc2cccc(c2)Nc2nccc(n2)N2CCCc3cc(ccc32)C1', 'ALK3 (Homo sapiens, UniProt P36894)', 'Kd', 'nM', 55);

---

Tested on: EA.hy926 cells
Assay Notes: MTS assay
Assay type: cell-based, human
Assay Conditions: 0.5 μM, day 1, 2 and 3
Measured Metric: effect on EA.hy926 cell viability (MTS)

INSERT INTO measurements (compound, obs_value) VALUES
  ('CN1CCc2cccc(c2)Nc2nccc(n2)N2CCCc3cc(ccc32)C1', 'no significant effects'),
  ('CNC(=O)c1ccccc1Sc1ccc2c(/C=C/c3ccccn3)n[nH]c2c1 [Axitinib, reference compound]', 'no significant effects'),
  ('CN1CCC(=O)NCCNc2ccn3ncc(c3n2)-c2cccc(c2)C1', 'no significant effects');

---

Study System: ACVR2B (Homo sapiens, UniProt Q13705)
Sequence (Q13705 19-512): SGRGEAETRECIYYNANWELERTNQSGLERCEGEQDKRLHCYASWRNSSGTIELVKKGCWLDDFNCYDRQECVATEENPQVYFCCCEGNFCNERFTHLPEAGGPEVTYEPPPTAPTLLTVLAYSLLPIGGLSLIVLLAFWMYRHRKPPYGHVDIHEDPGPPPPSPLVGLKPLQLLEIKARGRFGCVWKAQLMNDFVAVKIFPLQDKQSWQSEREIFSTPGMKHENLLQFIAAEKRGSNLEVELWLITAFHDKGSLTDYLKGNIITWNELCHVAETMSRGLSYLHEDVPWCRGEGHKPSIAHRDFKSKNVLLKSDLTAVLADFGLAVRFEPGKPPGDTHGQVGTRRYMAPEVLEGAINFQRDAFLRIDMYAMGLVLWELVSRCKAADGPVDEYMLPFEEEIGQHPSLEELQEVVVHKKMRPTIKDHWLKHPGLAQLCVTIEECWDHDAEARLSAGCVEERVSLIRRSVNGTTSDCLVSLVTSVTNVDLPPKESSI
Assay Notes: radiometric protein kinase assay, affinity (Kd)
Type: binding
Each record here notes measured Kd.
Measured Metric: Kd (nM)

INSERT INTO results (compound_structure, measured_metric, obs_value) VALUES
  ('CN1CCc2cccc(c2)Nc2nccc(n2)N2CCCc3cc(ccc32)C1', 'Kd', 220),
  ('CN1CCC(=O)NCCNc2ccn3ncc(c3n2)-c2cccc(c2)C1', 'Kd', 558);

---

Study System: ALK1 (Homo sapiens, UniProt P37023)
Sequence (P37023 22-503): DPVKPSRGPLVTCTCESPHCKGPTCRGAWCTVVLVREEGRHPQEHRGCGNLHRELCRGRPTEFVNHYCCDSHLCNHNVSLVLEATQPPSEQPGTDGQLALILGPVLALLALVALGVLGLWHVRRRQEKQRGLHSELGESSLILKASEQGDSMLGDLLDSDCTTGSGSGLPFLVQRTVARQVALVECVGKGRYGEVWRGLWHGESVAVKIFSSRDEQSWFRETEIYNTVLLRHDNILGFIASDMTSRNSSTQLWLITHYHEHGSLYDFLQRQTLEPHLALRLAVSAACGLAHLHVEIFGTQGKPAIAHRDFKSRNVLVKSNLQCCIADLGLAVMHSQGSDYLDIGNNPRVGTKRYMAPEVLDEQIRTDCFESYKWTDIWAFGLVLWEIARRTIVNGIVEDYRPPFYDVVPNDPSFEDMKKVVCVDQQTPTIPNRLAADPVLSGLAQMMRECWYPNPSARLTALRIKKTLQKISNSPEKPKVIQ
Assay Notes: radiometric protein kinase assay, affinity (Kd)
Type: binding
Measured Metric: Kd

INSERT INTO measurements (compound_structure, study_system, measured_metric, obs_value) VALUES
  ('CN1CCc2cccc(c2)Nc2nccc(n2)N2CCCc3cc(ccc32)C1', 'ALK1 (Homo sapiens, UniProt P37023)', 'Kd', '20 nM'),
  ('CN1CCC(=O)NCCNc2ccn3ncc(c3n2)-c2cccc(c2)C1', 'ALK1 (Homo sapiens, UniProt P37023)', 'Kd', '6 nM');

---

Study System: UniProtKB P37173
Sequence (P37173 23-567): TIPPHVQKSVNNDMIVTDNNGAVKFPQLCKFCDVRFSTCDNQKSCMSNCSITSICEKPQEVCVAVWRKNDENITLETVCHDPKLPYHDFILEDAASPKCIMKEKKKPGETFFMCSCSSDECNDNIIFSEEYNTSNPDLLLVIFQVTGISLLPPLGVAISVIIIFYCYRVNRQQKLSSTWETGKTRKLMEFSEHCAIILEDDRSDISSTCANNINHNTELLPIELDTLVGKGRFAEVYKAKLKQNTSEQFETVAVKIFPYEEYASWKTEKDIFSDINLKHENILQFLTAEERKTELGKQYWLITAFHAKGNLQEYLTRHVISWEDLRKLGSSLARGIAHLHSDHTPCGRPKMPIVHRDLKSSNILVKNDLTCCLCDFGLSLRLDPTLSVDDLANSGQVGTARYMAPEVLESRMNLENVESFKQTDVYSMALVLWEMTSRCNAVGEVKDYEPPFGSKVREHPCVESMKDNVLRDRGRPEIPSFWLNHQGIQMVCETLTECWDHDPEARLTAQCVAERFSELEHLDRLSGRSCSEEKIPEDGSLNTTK
Assay Notes: radiometric protein kinase assay, affinity (Kd)
Type: binding
Measured Metric: Kd (nM)

INSERT INTO assay_data (molecule, unit_label, obs_value) VALUES
  ('CN1CCc2cccc(c2)Nc2nccc(n2)N2CCCc3cc(ccc32)C1', 'nM', 380),
  ('CN1CCC(=O)NCCNc2ccn3ncc(c3n2)-c2cccc(c2)C1', 'nM', 76),
  ('c1ccc2c(-c3cnn4cc(-c5ccc(N6CCNCC6)cc5)cnc34)ccnc2c1 [LDN-193189, reference compound]', 'nM', 16);

---

Each record here notes measured Kd.
Study System: ALK5 (Homo sapiens, UniProt P36897)
Sequence (P36897 34-503): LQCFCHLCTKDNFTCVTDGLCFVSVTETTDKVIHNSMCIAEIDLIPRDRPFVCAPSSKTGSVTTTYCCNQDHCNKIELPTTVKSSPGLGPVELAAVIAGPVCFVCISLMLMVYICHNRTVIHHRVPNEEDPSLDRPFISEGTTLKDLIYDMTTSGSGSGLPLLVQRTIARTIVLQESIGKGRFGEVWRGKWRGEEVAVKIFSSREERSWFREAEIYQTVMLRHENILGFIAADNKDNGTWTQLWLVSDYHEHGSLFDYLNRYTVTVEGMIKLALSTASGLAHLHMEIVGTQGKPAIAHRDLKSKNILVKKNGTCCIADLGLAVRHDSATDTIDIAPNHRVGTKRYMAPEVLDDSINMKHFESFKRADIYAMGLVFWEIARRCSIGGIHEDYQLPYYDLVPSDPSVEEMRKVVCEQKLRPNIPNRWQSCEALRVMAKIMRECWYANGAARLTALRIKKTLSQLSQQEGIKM
Assay Notes: radiometric protein kinase assay, affinity (Kd)
Type: binding
Measured Metric: Kd (nM)

INSERT INTO results (compound_structure, measured_metric, unit_label, obs_value) VALUES
  ('CN1CCc2cccc(c2)Nc2nccc(n2)N2CCCc3cc(ccc32)C1', 'Kd', 'nM', 360),
  ('CN1CCC(=O)NCCNc2ccn3ncc(c3n2)-c2cccc(c2)C1', 'Kd', 'nM', 1010);

---

Test system: HUVECs
Assay Notes: Cord formation assay, HUVEC-eGFP co-cultured with human dermal fibroblasts
Assay type: cell-based
Assay Conditions: VEGF 15 ng/mL, 6 days; 0.5 µM (Sunitinib 1 μM)
Method: The cord formation assay was performed according to the IncuCyte Angiogenesis PrimeKit Assay protocol (Cell Player Angiogenesis PrimeKit, Essen BioScience). In brief, GFP labeled HUVEC cells and human dermal fibroblasts were mixed in a 1:20 ratio and seeded per well in a 96-well plate (3150 cells in total). […] Cords formation was visualized by the GFP fluorescence, and cord length was quantified with the instrument’s software. […]
Measured Metric: effect on VEGF-induced EC cord formation

INSERT INTO assay_data (compound_structure, measured_metric, obs_value) VALUES
  ('CN1CCc2cccc(c2)Nc2nccc(n2)N2CCCc3cc(ccc32)C1', 'effect on VEGF-induced EC cord formation', 'antagonized'),
  ('CN1CCC(=O)NCCNc2ccn3ncc(c3n2)-c2cccc(c2)C1', 'effect on VEGF-induced EC cord formation', 'antagonized');

These measurements were taken from paper PMC8231556.
